assayedSystem: T1, HLA-A*02 (peptide-receptive MHC class I monomer after UV-ligand exchange) (human)
T1 construct: also called HLA-A*02:01; HLA-A*0201
protocolDetails: UV-ligand exchange, b2m ELISA; peptide exchange yield grade (>=10% +; >=20% ++; >=50 +++; >=75% ++++)
quantity: peptide exchange yield

Data request: Query: peptide exchange yield; subject: SLYDSIAFI [SLYDSIAFI (SEQ ID No. 22)]
Data returned: ≥ 75%

Data request: Query: peptide exchange yield; subject: SLFHPEDTGQV (also called KLK3-004) [SLFHPEDTGQV (SEQ ID No. 49)]
Data returned: 50 to 75%

Data request: Query: peptide exchange yield; subject: ALLESRVNL (also called PDE11-001) [ALLESRVNL (SEQ ID No. 6)]
Data returned: ≥ 75%

More entries:
Data request: Query: peptide exchange yield; subject: KIFSRLIYI (also called TRPM8-003) [KIFSRLIYI (SEQ ID No. 5)]
Data returned: 50 to 75%
